# reported polymerase ribozyme fitness (log ratio); entries follow
B1: TPR 5TU (parent)
chain: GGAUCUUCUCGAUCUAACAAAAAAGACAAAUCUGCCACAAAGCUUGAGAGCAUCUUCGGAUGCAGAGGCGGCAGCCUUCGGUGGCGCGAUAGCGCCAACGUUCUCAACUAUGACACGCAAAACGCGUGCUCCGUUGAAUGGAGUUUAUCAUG

- Variants of: B1
- PROTOCOL_TEXT: polymerase ribozyme fitness, log enrichment relative to wild type (log ratio); higher = more active; in vitro selection for triplet polymerase activity
Fewer inactive variants are shown than the library holds.
Enter the number alone.

Consider the worked cases shown below.
>>> observed("C57G G81U C85G C96U U134A")
-4.03
>>> observed("A20G C54G U82A A98U U144A")
-4.1
>>> observed("C10G")
-2.78
>>> observed("C38U C149U")
-2.71
>>> observed("G58C G140C")
-4.02

Input: Return the recorded polymerase ribozyme fitness (log ratio) value; entry: A39U U55A G59U G117A A121U
Output: -1.11

Input: In one line, give reported polymerase ribozyme fitness (log ratio) of the entry C57G A115U U145A .
Output: -1.54

Input: Consider the variant A52G C79G . State its measured polymerase ribozyme fitness (log ratio).
Output: -3.71

Input: Give me measured polymerase ribozyme fitness (log ratio), please, for this variant: A16U U45C C123A
Output: -2.97

Input: Respond only with polymerase ribozyme fitness (log ratio) recorded for C38A G58A C96G C129G G143A
Output: -2.67

Input: Return polymerase ribozyme fitness (log ratio) for the following variant: C85G C116A
Output: -0.515
